Values from paper PMC7329864

- ASSAY_EXPLANATION: In-vivo pharmacokinetic studies
- CONDITION_NOTES: Animal 3, read-out: AUC(0–1440 min) (converted)
OBSERVATION_TYPE: AUC(0-t)
Please provide the amount together with its unit, number first.

Ask: Output measured AUC(0-t) for this item: O=C1NC(=O)C(=Cc2cn(CCCCCCn3c4ccccc4c(=O)c4ccccc43)c3ccccc23)C(=O)N1
Result: 20.2 µM·h

###

- ASSAY_EXPLANATION: In-vivo pharmacokinetic studies
- CONDITION_NOTES: Animal 1
OBSERVATION_TYPE: Cmax (µM)
The answer is to be given in µM; state only the numeric part.

Ask: Output measured Cmax for this item: O=C1NC(=O)C(=Cc2cn(CCCCCCn3c4ccccc4c(=O)c4ccccc43)c3ccccc23)C(=O)N1
Result: 3.15

###

- ASSAY_EXPLANATION: In-vivo pharmacokinetic studies
- CONDITION_NOTES: Animal 3
OBSERVATION_TYPE: Cmax (nM)
The answer is to be given in nM; state only the numeric part.

Ask: Output measured Cmax for this item: O=C1NC(=O)C(=Cc2cn(CCCCCCn3c4ccccc4c(=O)c4ccccc43)c3ccccc23)C(=O)N1 [Compound 1]
Result: 2600

###

- ASSAY_EXPLANATION: In-vivo pharmacokinetic studies
- CONDITION_NOTES: Animal 2
OBSERVATION_TYPE: Tmax (min)
The answer is to be given in min; state only the numeric part.

Ask: Output measured Tmax for this item: O=C1NC(=O)C(=Cc2cn(CCCCCCn3c4ccccc4c(=O)c4ccccc43)c3ccccc23)C(=O)N1
Result: 15

###

- SUBJECT_OF_TEST: COX-1 (Ovis aries, UniProt P05979)
- Construct: purchased Cayman Chemical Co. item no; 560131
- Sequence (P05979 25-600): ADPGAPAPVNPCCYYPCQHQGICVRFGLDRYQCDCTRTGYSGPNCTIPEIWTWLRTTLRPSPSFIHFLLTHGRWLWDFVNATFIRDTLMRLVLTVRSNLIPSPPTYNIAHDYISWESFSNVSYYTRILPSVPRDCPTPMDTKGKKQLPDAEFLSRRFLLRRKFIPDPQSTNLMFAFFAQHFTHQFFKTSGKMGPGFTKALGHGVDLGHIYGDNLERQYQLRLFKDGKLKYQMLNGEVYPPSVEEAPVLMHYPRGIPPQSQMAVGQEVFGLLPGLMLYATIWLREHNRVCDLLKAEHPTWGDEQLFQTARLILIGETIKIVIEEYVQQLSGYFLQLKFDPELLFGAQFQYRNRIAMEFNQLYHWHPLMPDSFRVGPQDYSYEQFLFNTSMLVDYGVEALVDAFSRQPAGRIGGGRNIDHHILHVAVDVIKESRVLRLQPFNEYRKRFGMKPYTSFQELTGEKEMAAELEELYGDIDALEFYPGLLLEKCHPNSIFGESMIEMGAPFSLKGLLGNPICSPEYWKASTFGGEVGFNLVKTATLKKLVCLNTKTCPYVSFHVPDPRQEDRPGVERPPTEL
- ASSAY_EXPLANATION: COX inhibitory enzyme immunoassay (COX-1)
- Format: biochemical
- CONDITION_NOTES: enzyme immunoassay, screened at 10^–4–10^–8 M; average of 3 experiments, SD ± 0.5 µM; read-out: IC50 COX-1
OBSERVATION_TYPE: IC50 (µM)
The answer is to be given in µM; state only the numeric part.

Cn1cc(/C=C2\C(=O)N(CCCCCCn3c4ccccc4c(=O)c4ccccc43)c3ccccc32)c2ccccc21; 53
COc1cc(/C=C2\C(=O)N(CCCCCn3c4ccccc4c(=O)c4ccccc43)c3ccccc32)cc(OC)c1O; 52
Cn1cc(/C=C2\C(=O)N(CCCCCn3c4ccccc4c(=O)c4ccccc43)c3ccccc32)c2ccccc21; 60

Next, consider the following molecule.
Ask: Output measured IC50 for this item: COc1cc(/C=C2\C(=O)N(CCCCCCn3c4ccccc4c(=O)c4ccccc43)c3ccccc32)cc(OC)c1O
Result: 48

###

- ASSAY_EXPLANATION: In-vivo pharmacokinetic studies
- CONDITION_NOTES: Animal 2, read-out: T1/2
- Procedure: Acute toxicity studies of 1 were carried out at 3 dose levels of 50 mg Kg^−1, 300 mg Kg^−1 and 2000 mg Kg^−1 by periodic monitoring for the first 24 h and daily monitoring for 14 days[56]. […] A few jumping movements were also observed. However, all these behaviours subsided after 60 min. […] Therefore, complying with the design and the results of in vitro studies, the in vivo experiments were gestured with the emergence of a new category of anti-inflammatory agents. […]
OBSERVATION_TYPE: half-life
Please provide the amount together with its unit, number first.

Ask: Output measured half-life for this item: O=C1NC(=O)C(=Cc2cn(CCCCCCn3c4ccccc4c(=O)c4ccccc43)c3ccccc23)C(=O)N1
Result: 6.96 h
